- measured target: PIK3CB;PIK3CA (UniProt P42338)
- experiment summary: PI3-Kinase alpha/beta Inhibition
Listed below: IC50 values for each entry.
Write the value in µM as a bare number.

Observe how each entry below is paired with its result.
Cc1cc(-c2ccccc2)c2nc(N3CCOCC3)cc(=O)n2c1 :: 9.8
Cc1cc(F)ccc1Oc1cccc2c(=O)cc(N3CCOCC3)[nH]c12 :: 0.02
Cc1cc(N[C@@H](C)c2ccccc2)c2nc(N3CCOCC3)cc(=O)n2c1 :: 1

Query O=c1cc(N2CCOCC2)nc2c(Oc3ccccc3)cccn12 on PIK3CB;PIK3CA (UniProt P42338); IC50 returned: 1

Query CC(C)(C)c1ccc(COc2cccn3c(=O)cc(N4CCOCC4)nc23)cc1 on PIK3CB;PIK3CA (UniProt P42338); IC50 returned: 7.5

Query O=c1cc(N2CCOCC2)nc2c(OCc3ccccn3)cccn12 on PIK3CB;PIK3CA (UniProt P42338); IC50 returned: 10

Query O=c1cc(N2CCOCC2)oc2c(-c3ccc(F)cc3)cccc12 on PIK3CB;PIK3CA (UniProt P42338); IC50 returned: 1

Query Cc1cc(Nc2ccccc2OCCN(C)C)c2nc(N3CCOCC3)cc(=O)n2c1 on PIK3CB;PIK3CA (UniProt P42338); IC50 returned: 2

---

- measured target: PIK3CB;PIK3CA (UniProt P42338)
- experiment summary: PI3-Kinase alpha/beta Inhibition
pIC50: −log10 of the molar value.
Binary call on pIC50: 1 from 6 upward, 0 beneath that.

// below: answered molecules
O=c1cc(N2CCOCC2)nc2c(-c3ccccc3)cccn12 :: 0
Cc1ccccc1Oc1cccc2c(=O)cc(N3CCOCC3)[nH]c12 :: 1
O=C(O)c1cccc(Oc2cccc3c(=O)cc(N4CCOCC4)[nH]c23)c1 :: 1
Cc1cc(NCc2ccccc2)c2nc(N3CCOCC3)cc(=O)n2c1 :: 1

Identify whether the reported pIC50 of the following molecule is 6 or greater: O=c1cc(N2CCOCC2)oc2c(-c3ccccc3C(F)(F)F)cccc12
1

Identify whether the reported pIC50 of the following molecule is 6 or greater: Cc1cccc(Oc2cccc3c(=O)cc(N4CCOCC4)[nH]c23)c1
1

Identify whether the reported pIC50 of the following molecule is 6 or greater: Cc1cccn2c(=O)cc(N3CCOCC3)nc12
0

Identify whether the reported pIC50 of the following molecule is 6 or greater: Cc1ccc(Oc2cccc3c(=O)cc(N4CCOCC4)[nH]c23)cc1
1

Identify whether the reported pIC50 of the following molecule is 6 or greater: Cc1cc(CNc2ccc(F)cc2C)c2nc(N3CCOCC3)cc(=O)n2c1
1

---

- measured target: PIK3CB;PIK3CA (UniProt P42338)
- experiment summary: PI3-Kinase alpha/beta Inhibition
measurement label: IC50 (nM)
Write the value in nM as a bare number.

Observe how each entry below is paired with its result.
COC(=O)c1cccc(Oc2cccc3c(=O)cc(N4CCOCC4)[nH]c23)c1 :: 500
Cc1ccc(Cc2cccc3c(=O)cc(N4CCOCC4)[nH]c23)cc1 :: 2000

Attention now turns to another entry.
Query Cc1cc(Nc2ccc(O)cc2)c2nc(N3CCOCC3)cc(=O)n2c1 on PIK3CB;PIK3CA (UniProt P42338); IC50 returned: 100
